The values you see were collected from patent US20250223358A1.

experimentalSystem: T1, human CD3 (human, UniProt P07766 23-207; P04234 22-171; P09693 23-182)
T1 construct: whole, on cells; also called hCD3; CD3 on Jurkat cells
T1 sequence (P07766 23-207, chain 1 of 3): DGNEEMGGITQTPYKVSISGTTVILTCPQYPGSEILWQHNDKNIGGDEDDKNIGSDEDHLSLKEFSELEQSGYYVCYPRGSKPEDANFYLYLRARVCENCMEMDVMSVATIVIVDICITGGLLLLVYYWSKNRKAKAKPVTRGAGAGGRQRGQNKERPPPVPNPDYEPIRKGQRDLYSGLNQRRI
T1 sequence (P04234 22-171, chain 2 of 3): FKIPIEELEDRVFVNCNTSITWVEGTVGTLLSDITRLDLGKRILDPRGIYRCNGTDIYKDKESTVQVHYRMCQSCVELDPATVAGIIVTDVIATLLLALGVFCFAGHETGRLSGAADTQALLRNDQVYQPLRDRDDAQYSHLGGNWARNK
T1 sequence (P09693 23-182, chain 3 of 3): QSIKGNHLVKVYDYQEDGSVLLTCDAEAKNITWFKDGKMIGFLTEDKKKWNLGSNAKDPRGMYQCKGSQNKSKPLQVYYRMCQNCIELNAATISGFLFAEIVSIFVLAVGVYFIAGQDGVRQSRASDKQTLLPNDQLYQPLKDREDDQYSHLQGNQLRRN
experimentalDetails: FACS on Jurkat cells
Listing: Top FACS signal of selected binders
measure: Top FACS signal

[[record]]
binder = "hu40E9-L2H13 (antibody, V domains shown) VH: EVQLVQSGAEVKKPGSSVKVSCKASGYTFSSYVIHWVRQAPGQGLEWMGYINPYNDVIKYNEKFKGRVTLTSDKSTSTAYMELSSLRSEDTAVYYCARDGYYSYDGFAYWGQGTLVTVSS VL: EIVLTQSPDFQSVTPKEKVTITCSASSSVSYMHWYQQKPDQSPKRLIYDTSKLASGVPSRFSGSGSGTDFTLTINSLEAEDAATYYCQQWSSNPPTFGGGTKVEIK"
reportedresult = 2050

[[record]]
binder = "hu40E9-L2H7 (antibody, V domains shown) VH: EVQLVQSGAEVKKPGSSVKVSCKASGYTFSSYVIHWVRQAPGQGLEWMGYINPGNGVIKYNEKFKGRVTLTSDKSTSTAYMELSSLRSEDTAVYYCARDSYSSYDGFAYWGQGTLVTVSS VL: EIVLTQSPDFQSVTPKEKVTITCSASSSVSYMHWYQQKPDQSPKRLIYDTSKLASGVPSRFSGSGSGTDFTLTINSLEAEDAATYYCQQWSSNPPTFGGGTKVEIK"
reportedresult = 2380

[[record]]
binder = "hu40E9-L5H7 (antibody, V domains shown) VH: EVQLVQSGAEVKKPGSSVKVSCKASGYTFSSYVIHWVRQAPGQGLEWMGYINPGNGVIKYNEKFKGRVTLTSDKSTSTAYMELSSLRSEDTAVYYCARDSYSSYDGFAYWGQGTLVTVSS VL: EIVLTQSPDFQSVTPKEKVTITCSASSSVSYMHWYQQKPDQSPKRLIYDTSKLASGVPSRFSGSGSGTDFTLTINSLEAEDAATYYCQQWRSSPPTFGGGTKVEIK"
reportedresult = 1850

[[record]]
binder = "hu40E9-L4H3 (antibody, V domains shown) VH: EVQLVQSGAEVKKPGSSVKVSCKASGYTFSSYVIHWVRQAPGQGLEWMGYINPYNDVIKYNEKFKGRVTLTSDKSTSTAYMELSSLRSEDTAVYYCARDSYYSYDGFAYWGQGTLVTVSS VL: EIVLTQSPDFQSVTPKEKVTITCSASSSVSYMHWYQQKPDQSPKRLIYDTSKLASGVPSRFSGSGSGTDFTLTINSLEAEDAATYYCQQWRSRPPTFGGGTKVEIK"
reportedresult = 2490

[[record]]
binder = "hu40E9-L2H16 (antibody, V domains shown) VH: EVQLVQSGAEVKKPGSSVKVSCKASGYTFSDYVIHWVRQAPGQGLEWMGYINPYNDVIKYNEKFKGRVTLTSDKSTSTAYMELSSLRSEDTAVYYCARDSYYSYDGFAYWGQGTLVTVSS VL: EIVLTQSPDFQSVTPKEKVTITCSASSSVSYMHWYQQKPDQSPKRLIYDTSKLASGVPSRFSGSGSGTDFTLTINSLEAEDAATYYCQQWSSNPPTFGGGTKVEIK"
reportedresult = 2010

[[record]]
binder = "hu40E9-L2H6 (antibody, V domains shown) VH: EVQLVQSGAEVKKPGSSVKVSCKASGYTFSSYVIHWVRQAPGQGLEWMGYINPYNDVIKYNEKFKGRVTLTSDKSTSTAYMELSSLRSEDTAVYYCARESFSSYDGFAYWGQGTLVTVSS VL: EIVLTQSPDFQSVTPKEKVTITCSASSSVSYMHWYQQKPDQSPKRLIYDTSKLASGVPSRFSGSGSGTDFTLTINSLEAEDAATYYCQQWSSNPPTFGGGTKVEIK"
reportedresult = 1260

[[record]]
binder = "hu40E9-L2H10 (antibody, V domains shown) VH: EVQLVQSGAEVKKPGSSVKVSCKASGYTFSSYVIHWVRQAPGQGLEWMGYINPYNDVIKYNEKFKGRVTLTSDKSTSTAYMELSSLRSEDTAVYYCARDSYYSYEAFAYWGQGTLVTVSS VL: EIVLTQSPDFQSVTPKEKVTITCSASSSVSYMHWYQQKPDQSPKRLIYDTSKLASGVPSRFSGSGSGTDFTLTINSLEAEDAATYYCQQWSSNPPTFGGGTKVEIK"
reportedresult = 1680

[[record]]
binder = "hu40E9-L5H3 (antibody, V domains shown) VH: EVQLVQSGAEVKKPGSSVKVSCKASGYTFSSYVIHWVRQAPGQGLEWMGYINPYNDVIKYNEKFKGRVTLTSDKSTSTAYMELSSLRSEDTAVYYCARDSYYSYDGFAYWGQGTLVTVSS VL: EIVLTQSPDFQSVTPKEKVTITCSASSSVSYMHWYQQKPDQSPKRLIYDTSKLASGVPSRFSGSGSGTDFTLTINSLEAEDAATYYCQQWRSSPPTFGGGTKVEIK"
reportedresult = 2490

[[record]]
binder = "hu40E9-L2H12 (antibody, V domains shown) VH: EVQLVQSGAEVKKPGSSVKVSCKASGYTFSSYVIHWVRQAPGQGLEWMGYINPYNDVIKYNEKFKGRVTLTSDKSTSTAYMELSSLRSEDTAVYYCARDDYYSYDGFAYWGQGTLVTVSS VL: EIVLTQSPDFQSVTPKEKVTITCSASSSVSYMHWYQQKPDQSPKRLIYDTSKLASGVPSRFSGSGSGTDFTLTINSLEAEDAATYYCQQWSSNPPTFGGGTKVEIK"
reportedresult = 850

[[record]]
binder = "hu40E9-L2H8 (antibody, V domains shown) VH: EVQLVQSGAEVKKPGSSVKVSCKASGYTFSSYVIHWVRQAPGQGLEWMGYINPGNDVIKYNEKFKGRVTLTSDKSTSTAYMELSSLRSEDTAVYYCARESYSSYDGFAYWGQGTLVTVSS VL: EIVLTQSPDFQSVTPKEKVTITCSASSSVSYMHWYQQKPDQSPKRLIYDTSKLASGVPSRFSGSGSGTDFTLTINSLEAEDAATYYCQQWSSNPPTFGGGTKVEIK"
reportedresult = 1240

